Recorded values, source ChEMBL document CHEMBL2380196.

Test: Antiproliferative activity against human WI38 cells after 72 hrs by MTT assay
Format: cell-based, WI-38
Conditions: human, WI-38 cells; read-out: LC50
REPORTED ENDPOINT: CC50 at 72 h (µM)

SMILES STR	REPORTED ENDPOINT	MEASUREMENT UNIT	OPERATOR SYMBOL	MEASUREMENT
N=C(N)c1ccc2nc(-c3ccc(-c4nc5ccc(C(=N)N)cc5s4)cc3)sc2c1	CC50 at 72 h	µM	>	100
N=C(N)c1ccc2nc(-c3ccccc3-c3nc4ccc(C(=N)N)cc4s3)sc2c1	CC50 at 72 h	µM	>	100
N=C(N)c1ccc2nc(-c3cccc(-c4nc5ccc(C(=N)N)cc5s4)c3)sc2c1	CC50 at 72 h	µM	=	65.4
Cl.Cl.c1cc(-c2nc3ccc(C4=NCCN4)cc3s2)cc(-c2nc3ccc(C4=NCCN4)cc3s2)c1	CC50 at 72 h	µM	=	6.63
Cl.Cl.c1cc2nc(-c3ccc(-c4nc5ccc(C6=NCCN6)cc5s4)cc3)sc2cc1C1=NCCN1	CC50 at 72 h	µM	>	100
c1ccc(-c2nc3ccc(C4=NCCN4)cc3s2)c(-c2nc3ccc(C4=NCCN4)cc3s2)c1	CC50 at 72 h	µM	=	74.3

* * *

Test system: SW-620
Assay: Antiproliferative activity against human SW620 cells after 72 hrs by MTT assay
Format: functional, cell-based
Details: SW-620, 72 h

SMILES STR	IC50
N=C(N)c1ccc2nc(-c3ccccc3-c3nc4ccc(C(=N)N)cc4s3)sc2c1	> 100 µM
Cl.Cl.c1cc2nc(-c3ccc(-c4nc5ccc(C6=NCCN6)cc5s4)cc3)sc2cc1C1=NCCN1	7.65 µM
N=C(N)c1ccc2nc(-c3cccc(-c4nc5ccc(C(=N)N)cc5s4)c3)sc2c1	6.01 µM
c1ccc(-c2nc3ccc(C4=NCCN4)cc3s2)c(-c2nc3ccc(C4=NCCN4)cc3s2)c1	24.7 µM
N=C(N)c1ccc2nc(-c3ccc(-c4nc5ccc(C(=N)N)cc5s4)cc3)sc2c1	> 100 µM
Cl.Cl.c1cc(-c2nc3ccc(C4=NCCN4)cc3s2)cc(-c2nc3ccc(C4=NCCN4)cc3s2)c1	0.47 µM

* * *

System: HeLa
Experiment: Antiproliferative activity against human HeLa cells after 72 hrs by MTT assay
Assay type: functional, cell-based
REPORTED ENDPOINT: log10 IC50 (log10 of the value in µM)

SMILES STR	MEASUREMENT
N=C(N)c1ccc2nc(-c3ccc(-c4nc5ccc(C(=N)N)cc5s4)cc3)sc2c1	0.98
N=C(N)c1ccc2nc(-c3ccccc3-c3nc4ccc(C(=N)N)cc4s3)sc2c1	1.80
c1ccc(-c2nc3ccc(C4=NCCN4)cc3s2)c(-c2nc3ccc(C4=NCCN4)cc3s2)c1	1.43
Cl.Cl.c1cc(-c2nc3ccc(C4=NCCN4)cc3s2)cc(-c2nc3ccc(C4=NCCN4)cc3s2)c1	0.31
Cl.Cl.c1cc2nc(-c3ccc(-c4nc5ccc(C6=NCCN6)cc5s4)cc3)sc2cc1C1=NCCN1	0.89

* * *

Test system: SK-BR-3
Assay: Antiproliferative activity against human SKBR3 cells after 72 hrs by MTT assay
Type: functional, cell-based
Conditions: SK-BR-3, 72 h, read-out: LC50 (the source's name)
Attribute: CC50

SMILES STR	CC50
N=C(N)c1ccc2nc(-c3ccccc3-c3nc4ccc(C(=N)N)cc4s3)sc2c1	> 100 µM
N=C(N)c1ccc2nc(-c3ccc(-c4nc5ccc(C(=N)N)cc5s4)cc3)sc2c1	> 100 µM
N=C(N)c1ccc2nc(-c3cccc(-c4nc5ccc(C(=N)N)cc5s4)c3)sc2c1	> 100 µM
